B1: Hairpin Ribozyme (parent)
chain: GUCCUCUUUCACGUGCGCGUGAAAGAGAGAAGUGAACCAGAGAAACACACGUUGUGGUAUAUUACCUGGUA

variants of: B1; assay: self-cleavage, relative activity (ratio to wild type); higher = more cleavage; co-transcriptional
Lab note: anything with self-cleavage at or over 0.2 counts as 1.0; the rest go in 0.0.

Qu. Decide: is the reported value of self-cleavage for U5G A45U equal to or greater than 0.2?
Ans. 0.0

Qu. Does self-cleavage meet or surpass 0.2 for A35U C50G ?
Ans. 1.0

Qu. Please check the record U20C A23C and state if its self-cleavage is at or above 0.2.
Ans. 1.0

Qu. Entry U60A U67C : is its self-cleavage no less than 0.2?
Ans. 0.0

Qu. Entry A26U G34A : is its self-cleavage no less than 0.2?
Ans. 1.0

Qu. Given the entry C16G A26U , answer whether its self-cleavage meets or surpasses 0.2.
Ans. 1.0

Qu. Item C12A U58A with self-cleavage of 0.2 or above?
Ans. 1.0

Qu. Say whether C37G G57A shows self-cleavage of 0.2 or more.
Ans. 0.0

Qu. Determine whether measured self-cleavage meets or exceeds 0.2 for C10A A26G
Ans. 1.0

Qu. API: above_or_equal(metric=self-cleavage, cutoff=0.2) for item C10G C50G
Ans. 0.0

Qu. Dear colleague, could you confirm whether C16U A30G has self-cleavage at or above 0.2?
Ans. 0.0

Qu. Does the variant G13C C66A have recorded self-cleavage that is 0.2 or more?
Ans. 0.0

Qu. Is the recorded value of self-cleavage equal to or greater than 0.2 for this variant? A11U A49G
Ans. 1.0

Qu. Determine whether measured self-cleavage meets or exceeds 0.2 for G27A G54A
Ans. 1.0

Qu. Is it the case that G32C U63A has self-cleavage reaching or exceeding 0.2?
Ans. 1.0

Qu. Say whether C3G C50G shows self-cleavage of 0.2 or more.
Ans. 0.0

Qu. Hi team, for A36C C66U , is the recorded self-cleavage at or above 0.2?
Ans. 1.0

Qu. // inclusive: self-cleavage at least 0.2? input: C18U A49U
Ans. 0.0

Qu. Form field: self-cleavage at least 0.2? Entry: U8G G25A
Ans. 1.0

Qu. Does C16U G21C have a reported self-cleavage of at least 0.2?
Ans. 1.0

Provenance of the data: the RNAGym collection of RNA variant scans (doi:10.7554/elife.80360)
